tested on: PXR homodimer (NR concentration 270 nM); assay: PBM binding z-score (relative to random genomic background probes); higher = stronger binding; sequences stand for … in GC…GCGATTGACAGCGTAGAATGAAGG
Measured PBM binding z-score of individual entries
Simply state the number, no unit and no words.

Solved cases (3 shown):
>  <residue.string>
AATACAGGGTCACTAGCCCAGAGTAGGTACGAAT

>  <PBM binding z-score>
0.113

$$$$
>  <residue.string>
GGAACGAGGGCATTCGAGCTGATAGCATGGCGAT

>  <PBM binding z-score>
-0.341

$$$$
>  <residue.string>
TCTTGTAGATCAATAGAGGTAAAGAAAGTGCGCT

>  <PBM binding z-score>
0.0758

$$$$

Name the reported PBM binding z-score value associated with the sequence `TAGCCTAGGTCATGGGCTAGTATACCACGCGAAC` -0.606

Need PBM binding z-score, item `TCAGACAGGTGAAGGTAAGTCAGGTACGCAGTCG` 0.282

Dear colleague, I am looking for the recorded PBM binding z-score of the following sequence: `CAAACTAGGTCACCGGAAGCTCAAAGTCCGCATG` 0.365

Record request: PBM binding z-score value, item `GCTGCTAGGTCATCTGATGGTCAGCTAAAGCTCG` -0.679
